# test-system: pooled human IgG (human IgG1,2,3 and 4)
experimental-readout: Enzyme activity endpoint: Fab′2 (ng/µL)
Response body: numeric value in ng/µL, unit text excluded.

// below: answered proteins
- protein: "PRT-675 (protein) MQITSVWTKGVTPPTMDDFTINGEDVFHAPYVANQGWYDITKTFNGKDDLLCGAATAGNMLHWWFDQNKEQIERYLKKHPEKQKIIFNNQEMFDLKEAINTKDSQTDSKLFNYFRDKAFPNLSARQLGVMPDHVLDMFINGYYLNLTKTQSTDVNRPEDTKDLRGGIFDHVFTRGDQSKLLTARHDLKNKTLKEISDLIKQELTEGKALGLSHTYANVRISHVINLWGADFDAEGNLEAIYVTDSDSNASIGMKKYYVGVNSAGKVAISAKKIEGDNIGAQVLGLYTLSTGKDIWQKLSLEHHHHHH"
  experimental-readout: "Enzyme activity endpoint: Fab′2"
  assay-result: 448
- protein: "PRT-672 (protein) MQITSVWTKGVTPPTPEQFTYQNEDVFHAPYIANQGWYDITKTFNGKDNLLCGAATAGNMLHWWFDQNKTEIENYLKKHPEKQKIIFNNQEMFDLRKAINTKDSQTNSALFEYFRDKAFPNLSARQLGVMPDHVLDMFINGYYLNVTKTQSTDVNRPYQTKDKRGGIFDHVFTRGDQSKLLTARHDLKNKTLNEISDLIKQELTEGKALALSHTYANVRINHVINLWGADFDAEGNLEAIYVTDSDSNASIGMKKYFVGVNSSGKVAISAKKIEDDNIGAQVLGLFTLSSGQDIWEQLSLEHHHHHH"
  experimental-readout: "Enzyme activity endpoint: Fab′2"
  assay-result: 775

// switching to the query protein
Task: Give me measured Enzyme activity endpoint: Fab′2, please, for this protein: PRT-676 (protein) MQITSVWTKGVTPPTMDQFTNYNYDVFHAPYKPGQGWYDITKTFDGKDNLLCGAATAGNMLHWWFDQNKEEIENYLKKHPEKQKIIFNNQKMFDLRKAINTKDSQTNSALFNYFKDKAFPNLSARQKGVMPDLVLDMFINGYYLNLGKTQSTDVNREYQTKDSRGGIFDDVFGRGDQTKLLTARHDLYNGGLNDISQLIKQELSSGKALGLSHTYANVRYSHVINLWGADFDEEGNLEAIYVTDSDDDASIGMKKYYVGKNASGKVAISAKKIEGENIGAQVLGLFTLSSGKEIWQKLSLEHHHHHH
Result: 107
